Property: IC50 at 20 h; scope: individual compounds
- Assay Summary: SRB cytotoxicity / cell survival under nitrite assay conditions
- Assay type: cell-based, murine
- Reported Conditions: mouse, RAW 264.7 cells
Dear colleague, please return just the value in µM, with no unit written.

Examples with their reported IC50 at 20 h follow.
[
  {
    "Compound": "Nc1ccccc1C#Cc1cc(F)cc(F)c1 [10ae′, 2-((3,5-Difluorophenyl)ethynyl)aniline]",
    "IC50 at 20 h [µM]": 42.9
  },
  {
    "Compound": "CC(C)(C)OC(=O)n1c(-c2ccccc2)cc2ccccc21",
    "IC50 at 20 h [µM]": 38.2
  },
  {
    "Compound": "C#CCn1c(-c2ccccc2)cc2ccccc21",
    "IC50 at 20 h [µM]": 46.8
  },
  {
    "Compound": "Cc1ccccc1-c1cc2ccccc2[nH]1 [Compound 10ab, 2-o-Tolyl-1H-indole]",
    "IC50 at 20 h [µM]": 32.9
  }
]

Okay, now this compound:
[Q] What does the record list as IC50 at 20 h for CON=Cc1c(-c2ccccc2)[nH]c2ccccc12 ?
[A] 48
